# Target: Heat shock protein HSP 90-alpha (Homo sapiens)
# Format: functional, organism-based
The source made the active and inactive calls.
AC50 by entry:

{"Compound": "O=C(O)/C=C/C(=O)c1ccc2c(c1)CCc1ccccc1-2", "AC50": "16.6 µM (active)"}
{"Compound": "CCOC(=O)C(=Cc1ccc(-n2cncn2)cc1)C(=O)OCC", "AC50": "7.37 µM (active)"}
{"Compound": "CC1=CC(=O)C(C(C)C)=C/C1=N/OS(=O)(=O)c1ccccc1", "AC50": "3.61 µM (active)"}
{"Compound": "CC1C/C(=C/c2ccncc2)C(=O)/C(=C/c2ccncc2)C1 (centres undefined)", "AC50": "4.23 µM (active)"}
{"Compound": "Cc1cc(/C=C2\\SC(=S)N(C)C2=O)c(C)n1-c1ccc(O)cc1", "AC50": "8.02 µM (active)"}
{"Compound": "F[B-](F)(F)c1cc2cc(Br)ccc2s1", "AC50": "4.02 µM (active)"}
{"Compound": "CCCCOc1ccc(C(=O)NNC(=S)NC(=O)CC)cc1", "AC50": "4.33 µM (active)"}
{"Compound": "CCCC(=O)NC(c1ccc(C)cc1)c1ccc2cccnc2c1O (centres undefined)", "AC50": "3.35 µM (active)"}
{"Compound": "COc1ccccc1NS(=O)(=O)c1cc(C(=O)N2CC(C)CC(C)C2)ccc1C (centres undefined)", "AC50": "5.54 µM (active)"}

###

# Assay comment: Luminescence Cell-Based Dose Confirmation HTS to Identify Inhibitors of Platelet Dense Granule Release. [Related pubchem assays: 1663 (Primary HTS), 1678 (Summary of Project)]
# Assay type: functional
Activity calls are given as the source filed them.

{"Compound": "COc1ccc(CCn2c(=N)c(C(=O)NCC3CCCO3)cc3c(=O)n4ccccc4nc32)cc1 (centres undefined)", "EC50": "15.7 µM (active)"}
{"Compound": "COc1cc2c(cc1OC)-c1cc(Nc3ccc(F)cc3)nc(=O)n1CC2", "EC50": "1.82 µM (active)"}
{"Compound": "Cc1ccc(-c2nc(N/N=C/c3cccnc3)c3ccccc3n2)cc1", "EC50": "1.02 µM (active)"}
{"Compound": "Cc1nc2cc(Nc3ccncc3)ccc2s1", "EC50": "> 112 µM (not active)"}

###

Each entry below lists one item and its recorded EC50 value.
# Assay comment: Luminescence Cell-Based Dose Response HTS to Identify Activators of Luciferase Translation or Activity in H4 […] Cells. [Related pubchem assays: 1829 (Project Summary), 1814 (Primary HTS)]
# Assay type: functional
Activity calls are given as the source filed them.

{"Molecule": "CC1C/C(=C/c2ccncc2)C(=O)/C(=C/c2ccncc2)C1 (stereo not drawn)", "EC50": "> 60 µM (not active)"}
{"Molecule": "O=S(=O)(NC(=NC(=S)Nc1ccccc1)c1ccccc1)c1ccc(Cl)cc1", "EC50": "59.7 µM (active)"}
{"Molecule": "N#CC1=C2C=Cc3ccccc3N2CCCC1=O", "EC50": "26.4 µM (active)"}
{"Molecule": "O=C(COc1ccc(Cl)cc1Cl)NC(=O)N1CCCCC1", "EC50": "30.6 µM (active)"}
{"Molecule": "NC(=O)C1(N2CCCCC2)CCN(C2CC(=O)NC2=O)CC1 (stereo not drawn)", "EC50": "> 120 µM (not active)"}
{"Molecule": "Fc1ccc(-c2csc(/C=C/c3ccc4c(c3)OCO4)n2)cc1", "EC50": "9.07 µM (active)"}
{"Molecule": "CCCS(=O)(=O)c1nc(S(=O)(=O)c2ccc(C)cc2)c(N2CCN(CCO)CC2)s1", "EC50": "8.79 µM (active)"}
{"Molecule": "CCc1cc(/C=N/C2CCCCC2)c(O)s1", "EC50": "> 120 µM (not active)"}
